system: Panc-1; assay: Cytotoxicity screening, Panc-1 cells; format: cell-based; conditions: Homo sapiens; Panc-1; treatment at 10 μM, 24 h treatment then 96 h incubation; read-out: Inhibition: percent cell death normalized against controls
For each entry below, report its inhibition at 10 µM value.
Answers are plain numbers, in %.

{"Molecule": "OC(CSCC(O)c1ccc(OC(F)(F)F)cc1)c1ccc(OC(F)(F)F)cc1 (stereo not drawn) [II-c]", "Measured result": 43}

For each listed entry, give its inhibition at 10 µM.
1. COc1cccc(C(O)CSCC(O)c2cccc(OC)c2OC)c1OC (stereo not drawn) [II-b]
2. OC(CSCC(O)c1ccc(C(F)(F)F)cc1)c1ccc(C(F)(F)F)cc1 (stereo not drawn) [II-d]

Found:
0
27
